Reference source for all entries: patent US20120082667A1

system: T1, synthesized A beta1-42 (UniProt P05067 672-713)
T1 construct: domain: A beta1-42; spotted in the dot blot as the second of the two types of oligomers; also called A beta42 oligomer
assay-name: dot blot: peptide spotted on nitrocellulose (0.1 micro g/dot), hybridoma culture supernatant, HRP anti-mouse IgG, ECL
parameter-measured: binding result

AL-214 antibody (antibody, IgG2b, V domains shown) VH: QVQLKQSGPGLVQPSQSLSITCTVSGFSLTSYGVHWVRQSPGKGLEWLGVIWRGGSTDYNAAFMSRLSITKDNSKSQVFFKMNSLQADDTAIYYCANNRYERGGYYAMDYWGQGTSVTVSS VL: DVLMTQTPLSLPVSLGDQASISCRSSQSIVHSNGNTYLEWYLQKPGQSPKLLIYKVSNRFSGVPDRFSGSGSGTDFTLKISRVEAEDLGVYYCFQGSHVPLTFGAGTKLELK; binds
AL-223 antibody (antibody, IgG2a, V domains shown) VH: QVTLKESGPGILKPSQTLSLTCSFSGFSLSTSGMGVGWIRQPSGKGLEWLAHIWWDDDKYYNPSLKSQLTISKDTSRNQVFLKITSVDTADTATYYCARRALITTRDYFDYWGQGTTLTVSS VL: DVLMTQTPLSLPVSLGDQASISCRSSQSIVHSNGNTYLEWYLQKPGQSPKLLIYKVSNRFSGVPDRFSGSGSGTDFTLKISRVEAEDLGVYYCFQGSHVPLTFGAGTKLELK; binds
AL-212 antibody (antibody, IgG2b, V domains shown) VH: QVTLKESGPGILKPSQTLSLTCSFSGFSLSTSGMGVGWIRQPSGKGLEWLAHIWWDDDKYYNPSLKSQLTISKDTSRNQVFLKITSVDTADTATYYCAPSTMITTFAYWGQGTLVTVSA VL: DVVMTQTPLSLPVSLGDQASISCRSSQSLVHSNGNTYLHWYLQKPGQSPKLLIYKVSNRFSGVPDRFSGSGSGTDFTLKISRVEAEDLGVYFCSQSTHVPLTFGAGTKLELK; binds
